For each record, write down the corresponding Ki.
Target: H3 receptor (Cavia porcellus)
Construct: The source of the H3 receptors in this experiment was guinea pig brain; from tissue; host or cells: guinea pig brain membranes
Assay: H3 Receptor Binding Assay
Set-up: species or system guinea pig
Conditions: guinea pig brain membranes; [3H]R-α-methylhistamine or [3H]-N-methylhistamine, 30°, 30 min; read-out: H3 Binding Ki
Value expressed in nM; do not type the unit.

q: Please indicate Ki recorded for CC1(c2c[nH]cn2)CCNC1 (stereo not drawn)
a: 170

q: Please indicate Ki recorded for C[C@@H]1CNC[C@H]1c1cnc[nH]1 (relative stereo)
a: 8

q: Please indicate Ki recorded for C[C@@H]1NC[C@H]1c1c[nH]cn1 (relative stereo)
a: 7

q: Please indicate Ki recorded for c1ccc(CC[C@@H]2NCC[C@@H]2c2c[nH]cn2)cc1 (relative stereo)
a: 600

q: Please indicate Ki recorded for C[C@@H]1NCC[C@H]1c1c[nH]cn1 (relative stereo)
a: 6

q: Please indicate Ki recorded for CC[C@@H]1CNC[C@H]1c1c[nH]cn1 (relative stereo)
a: 150

q: Please indicate Ki recorded for C[C@@H]1C[C@@H](c2c[nH]cn2)CN1 (relative stereo)
a: 76

q: Please indicate Ki recorded for CC1(C)NCCC1c1c[nH]cn1 (stereo not drawn)
a: 66

q: Please indicate Ki recorded for c1nc(CC2CCCN2)c[nH]1 (stereo not drawn)
a: 110

q: Please indicate Ki recorded for CN1CCC(Cc2c[nH]cn2)C1 (stereo not drawn)
a: 3

q: Please indicate Ki recorded for CCCCC[C@@H]1CNC[C@H]1c1c[nH]cn1 (relative stereo)
a: 450

q: Please indicate Ki recorded for c1nc(C2CCNC2)c[nH]1 (stereo not drawn)
a: 3

* * *

Target: H3 receptor (Cavia porcellus, UniProt Q9JI35)
Construct: The source of the H3 receptors in this experiment was guinea pig brain; from tissue; host or cells: guinea pig brain membranes
Sequence (Q9JI35 whole entry): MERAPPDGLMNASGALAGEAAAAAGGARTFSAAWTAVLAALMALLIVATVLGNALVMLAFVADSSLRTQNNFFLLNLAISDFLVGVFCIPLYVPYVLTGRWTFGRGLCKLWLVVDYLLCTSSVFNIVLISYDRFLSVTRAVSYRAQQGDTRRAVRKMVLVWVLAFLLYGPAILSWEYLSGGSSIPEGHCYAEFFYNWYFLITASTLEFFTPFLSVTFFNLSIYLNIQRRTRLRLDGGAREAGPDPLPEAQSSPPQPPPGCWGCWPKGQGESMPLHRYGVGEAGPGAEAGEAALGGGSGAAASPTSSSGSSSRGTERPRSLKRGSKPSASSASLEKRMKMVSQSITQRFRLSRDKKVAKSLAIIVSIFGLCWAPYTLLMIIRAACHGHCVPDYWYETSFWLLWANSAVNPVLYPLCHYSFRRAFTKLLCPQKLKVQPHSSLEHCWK
Test: H3 Receptor Binding Assay
Set-up: species or system guinea pig
measured_property: Ki (nM)
Value expressed in nM; do not type the unit.

q: Please indicate Ki recorded for CCCCC[C@@H]1CNC[C@@H]1c1c[nH]cn1 (relative stereo)
a: 77

Source of measurements: patent US5463074A
